Target: HDAC5 (Homo sapiens)
Construct: purchased BPS Bioscience 50065
Sequence (Q9UQL6 whole entry): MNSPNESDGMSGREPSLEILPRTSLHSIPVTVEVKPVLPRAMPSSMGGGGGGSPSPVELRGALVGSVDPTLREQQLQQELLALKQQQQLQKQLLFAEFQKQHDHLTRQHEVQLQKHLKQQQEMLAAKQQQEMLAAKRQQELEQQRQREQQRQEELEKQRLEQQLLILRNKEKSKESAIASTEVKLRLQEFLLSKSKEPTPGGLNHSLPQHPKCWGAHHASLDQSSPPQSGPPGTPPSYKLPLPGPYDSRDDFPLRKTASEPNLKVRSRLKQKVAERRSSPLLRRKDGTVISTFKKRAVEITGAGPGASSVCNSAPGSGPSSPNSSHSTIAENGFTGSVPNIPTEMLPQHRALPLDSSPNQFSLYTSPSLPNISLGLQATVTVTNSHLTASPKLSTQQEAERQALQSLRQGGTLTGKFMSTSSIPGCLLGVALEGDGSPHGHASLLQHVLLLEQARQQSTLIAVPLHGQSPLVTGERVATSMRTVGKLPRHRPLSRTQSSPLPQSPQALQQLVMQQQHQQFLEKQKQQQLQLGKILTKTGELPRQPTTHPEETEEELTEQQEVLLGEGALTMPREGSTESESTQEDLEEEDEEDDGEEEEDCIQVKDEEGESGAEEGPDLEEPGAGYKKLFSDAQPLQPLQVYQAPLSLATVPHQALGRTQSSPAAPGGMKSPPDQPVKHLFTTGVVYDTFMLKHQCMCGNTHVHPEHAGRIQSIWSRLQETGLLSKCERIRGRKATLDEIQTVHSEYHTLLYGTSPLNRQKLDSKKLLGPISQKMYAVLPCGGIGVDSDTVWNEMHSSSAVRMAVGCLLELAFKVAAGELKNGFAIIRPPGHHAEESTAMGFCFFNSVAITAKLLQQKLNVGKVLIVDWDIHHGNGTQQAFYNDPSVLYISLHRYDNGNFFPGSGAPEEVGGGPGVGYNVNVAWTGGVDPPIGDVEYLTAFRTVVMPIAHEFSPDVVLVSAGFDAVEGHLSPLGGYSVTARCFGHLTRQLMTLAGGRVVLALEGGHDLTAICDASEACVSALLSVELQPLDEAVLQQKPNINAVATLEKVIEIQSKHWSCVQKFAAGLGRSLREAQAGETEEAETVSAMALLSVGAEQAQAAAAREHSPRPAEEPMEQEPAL
Assay: HDAC5 fluorogenic enzyme assay kit (BPS Bioscience), cell-free
Type: biochemical
Conditions: 0.001-10 μmol/L inhibitor
Description: Enzyme activity measurements of class I and IIa HDACs were performed using a cell‐free system and according to a method previously described.16 We used fluorogenic HDAC1 (#50061), HDAC2 (#50062), HDAC3 (#50063), HDAC4 (#50064), HDAC5 (#50065), HDAC6 (#50076), HDAC7 (#50067), HDAC8 (#50068) and HDAC9 (#50069) enzyme assay kits from BPS Bioscience (San Diego, CA, USA). To test the enzyme activity of LMK235, 0.001, 0.003, 0.01, 0.03, 0.1, 0.3, 1, 3 and 10 μmol/L concentrations were used. […]
pIC50: −log10 of the molar value.

- smilesInput: "Cc1cc(C)cc(C(=O)NOCCCCCC(=O)NO)c1"
  pIC50: "< 4.70"

---

Biological target: HDAC7 (Homo sapiens)
Sequence (Q8WUI4 1-952): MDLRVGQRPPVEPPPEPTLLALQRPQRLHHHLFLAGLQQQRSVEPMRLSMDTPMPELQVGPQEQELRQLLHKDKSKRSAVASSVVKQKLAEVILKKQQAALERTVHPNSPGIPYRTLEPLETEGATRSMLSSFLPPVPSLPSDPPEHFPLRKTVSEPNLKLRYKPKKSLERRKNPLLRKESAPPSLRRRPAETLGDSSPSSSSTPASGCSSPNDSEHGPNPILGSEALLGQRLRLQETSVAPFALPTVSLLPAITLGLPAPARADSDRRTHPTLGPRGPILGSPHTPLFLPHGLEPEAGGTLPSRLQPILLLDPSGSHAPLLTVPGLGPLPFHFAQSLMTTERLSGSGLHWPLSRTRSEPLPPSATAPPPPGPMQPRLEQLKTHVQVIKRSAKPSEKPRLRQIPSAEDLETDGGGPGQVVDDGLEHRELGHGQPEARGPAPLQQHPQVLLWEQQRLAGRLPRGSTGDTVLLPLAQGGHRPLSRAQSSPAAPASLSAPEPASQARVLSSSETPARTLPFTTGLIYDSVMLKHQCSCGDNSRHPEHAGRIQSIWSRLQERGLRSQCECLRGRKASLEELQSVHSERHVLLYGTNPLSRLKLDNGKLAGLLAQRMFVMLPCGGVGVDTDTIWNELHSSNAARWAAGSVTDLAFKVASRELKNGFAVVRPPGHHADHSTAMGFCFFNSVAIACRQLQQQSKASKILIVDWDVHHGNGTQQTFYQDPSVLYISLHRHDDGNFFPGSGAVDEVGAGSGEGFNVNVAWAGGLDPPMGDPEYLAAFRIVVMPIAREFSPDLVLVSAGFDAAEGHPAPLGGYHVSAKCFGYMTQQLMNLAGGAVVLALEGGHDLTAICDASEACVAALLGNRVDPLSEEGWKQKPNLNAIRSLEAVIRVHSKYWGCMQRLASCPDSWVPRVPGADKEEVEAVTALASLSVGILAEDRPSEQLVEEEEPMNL

- smilesInput: "Cc1cc(C)cc(C(=O)NOCCCCCC(=O)NO)c1"
  assaySystem: "HDAC7 (Homo sapiens)"
  IC50: "> 20 µM"

---

target: HDAC2 (Homo sapiens)
Sequence (Q92769 whole entry): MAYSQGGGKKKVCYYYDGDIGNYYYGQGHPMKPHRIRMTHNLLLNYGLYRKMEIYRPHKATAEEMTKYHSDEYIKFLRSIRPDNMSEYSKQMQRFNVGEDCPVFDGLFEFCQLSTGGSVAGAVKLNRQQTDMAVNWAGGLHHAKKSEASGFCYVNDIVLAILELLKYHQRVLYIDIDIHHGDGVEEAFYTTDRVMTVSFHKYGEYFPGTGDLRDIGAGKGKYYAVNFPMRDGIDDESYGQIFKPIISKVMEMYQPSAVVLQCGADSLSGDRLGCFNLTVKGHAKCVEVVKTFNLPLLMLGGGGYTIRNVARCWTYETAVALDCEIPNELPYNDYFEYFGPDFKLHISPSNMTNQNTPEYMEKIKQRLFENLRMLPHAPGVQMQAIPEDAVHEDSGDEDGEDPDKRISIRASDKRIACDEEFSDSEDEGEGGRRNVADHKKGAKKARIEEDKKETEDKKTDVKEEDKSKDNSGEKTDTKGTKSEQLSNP
pIC50: −log10 of the molar value.

- compound: "Cc1cc(C)cc(C(=O)NOCCCCCC(=O)NO)c1 [LMK235]"
  pIC50: 7.26
